B1: library; numbered along this chain (parent)
chain: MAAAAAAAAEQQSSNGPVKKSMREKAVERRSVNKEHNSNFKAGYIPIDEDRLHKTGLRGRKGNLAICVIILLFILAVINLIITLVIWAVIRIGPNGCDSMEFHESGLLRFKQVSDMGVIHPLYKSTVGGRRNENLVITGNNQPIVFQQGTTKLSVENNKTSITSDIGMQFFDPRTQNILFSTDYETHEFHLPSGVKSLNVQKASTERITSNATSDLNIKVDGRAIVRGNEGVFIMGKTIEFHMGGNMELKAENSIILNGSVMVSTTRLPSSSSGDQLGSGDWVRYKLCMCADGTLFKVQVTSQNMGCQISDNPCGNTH

- Variants of: B1
- ASSAY_COMMENT: SGCB cell-surface expression functional score (HA stain, bin4 vs bin1, normalised to synonymous) (log10 ratio); higher = more cell-surface SGCB (functional)
Would you mind labelling by SGCB cell-surface expression functional score (log10)? At or over 0.06 is Fulfilled, under is Not fulfilled.

In [3]: df
Out[3]:
    variant_descriptor          label
 0               E248R      Fulfilled
 1               S161D  Not fulfilled
 2               F110L  Not fulfilled
 3               N140P  Not fulfilled
 4                Q11K  Not fulfilled
 5                R30D      Fulfilled
 6               H187S  Not fulfilled
 7               R267G      Fulfilled
 8               T126P  Not fulfilled
 9               N199T      Fulfilled
10               M100I  Not fulfilled
11               K286L  Not fulfilled
12               N229I      Fulfilled
13                 A4S  Not fulfilled
14                L80W      Fulfilled
15               I119G  Not fulfilled
16               K124L      Fulfilled
17               R227W      Fulfilled
18               W282Q      Fulfilled
19                 A3V      Fulfilled
20               M247A      Fulfilled
